# measured.target: PRMT5 (Homo sapiens, UniProt O14744)
# Construct: purchased Viva (custom protein)
# Sequence (O14744 whole entry): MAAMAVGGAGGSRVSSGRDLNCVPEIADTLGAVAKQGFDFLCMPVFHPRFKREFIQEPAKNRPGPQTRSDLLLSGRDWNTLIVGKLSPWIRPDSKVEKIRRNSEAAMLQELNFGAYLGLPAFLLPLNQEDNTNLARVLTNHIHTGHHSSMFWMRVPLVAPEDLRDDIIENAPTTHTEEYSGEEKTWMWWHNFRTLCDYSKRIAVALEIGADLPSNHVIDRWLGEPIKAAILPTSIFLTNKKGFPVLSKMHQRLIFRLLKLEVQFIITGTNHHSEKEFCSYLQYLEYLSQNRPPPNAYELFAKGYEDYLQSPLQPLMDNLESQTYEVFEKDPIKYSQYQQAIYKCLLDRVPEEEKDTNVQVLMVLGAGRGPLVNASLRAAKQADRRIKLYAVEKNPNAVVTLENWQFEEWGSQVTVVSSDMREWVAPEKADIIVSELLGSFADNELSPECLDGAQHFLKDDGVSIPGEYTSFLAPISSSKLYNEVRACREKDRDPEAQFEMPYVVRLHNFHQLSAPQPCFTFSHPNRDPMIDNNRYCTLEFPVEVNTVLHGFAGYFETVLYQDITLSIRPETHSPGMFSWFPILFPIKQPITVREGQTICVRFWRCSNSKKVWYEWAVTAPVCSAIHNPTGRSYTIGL
# Sequence (Q9BQA1 whole entry partner): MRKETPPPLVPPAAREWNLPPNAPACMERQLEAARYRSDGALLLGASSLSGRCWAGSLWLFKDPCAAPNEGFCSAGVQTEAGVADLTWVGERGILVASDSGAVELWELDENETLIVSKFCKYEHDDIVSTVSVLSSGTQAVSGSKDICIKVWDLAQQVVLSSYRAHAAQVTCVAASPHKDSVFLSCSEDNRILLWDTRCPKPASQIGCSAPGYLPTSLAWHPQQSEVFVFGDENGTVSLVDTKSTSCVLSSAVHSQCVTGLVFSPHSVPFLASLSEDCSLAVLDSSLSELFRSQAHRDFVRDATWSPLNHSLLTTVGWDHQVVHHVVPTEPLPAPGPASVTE
# measurement.description: PRMT5 biochemical IC50 assay with MTA as cofactor
# condition.context: PRMT5, MTA as cofactor; read-out: MTA IC50
Reported values of IC50 for individual entries

>  <molecule>
CCc1cc(NC(=O)C(=O)N2C[C@@H](C)CC[C@@H]2c2ccccc2)cnc1N (single isomer, unassigned) [Compound 709]

>  <readout>
IC50

>  <assay.result>
50 to 500 nM

$$$$
>  <molecule>
Cc1cc(NC(=O)C(=O)N2C[C@H](C)CC[C@H]2c2ccc(S(C)(=O)=O)cc2)cnc1N (single isomer, unassigned) [Compound 938]

>  <readout>
IC50

>  <assay.result>
> 500 nM

$$$$

Attention now turns to another entry.
input: Report IC50 for CCc1cc(NC(=O)C(=O)N2C[C@H](C)CC[C@H]2c2ccc3[nH]ncc3c2)cnc1N (single isomer, unassigned) [Compound 579] please.
output: > 500 nM

* * *

Reported IC50 values for the following molecules.
# measured.target: PRMT5 (Homo sapiens, UniProt O14744)
# Construct: purchased Viva (custom protein)
# measurement.description: PRMT5 biochemical IC50 assay with SAM as cofactor
# condition.context: PRMT5, SAM as cofactor; read-out: SAM IC50

>  <molecule>
N#C[C@@H]1CCN(C(=O)C(=O)Nc2cncc(C(N)=O)c2)[C@H](c2ccccc2)C1 (single isomer, unassigned) [Compound 353]

>  <assay.result>
> 500 nM

$$$$

Continue with the next molecule.
input: Look at this molecule and give its reported IC50. Cc1nc2cc([C@H]3CC[C@H](C)CN3C(=O)C(=O)Nc3cnc(N)c(C)c3)ccc2[nH]1 (single isomer, unassigned) [Compound 947]
output: 50 to 500 nM

* * *

# measured.target: PRMT5 (Homo sapiens)
# Construct: purchased Viva (custom protein)
# measurement.description: PRMT5 biochemical IC50 assay with SAM as cofactor
# condition.context: PRMT5, SAM as cofactor; read-out: SAM IC50
Each item that follows carries a reported IC50.

Worked examples, 2 compounds total:
>  <compound>
C[C@@H]1[C@@H](C)CC[C@H](c2ccccc2)N1C(=O)C(=O)Nc1cncc(C(N)=O)c1 (single isomer, unassigned)

>  <measured.target>
PRMT5 (Homo sapiens)

>  <assay.result>
> 0.5 µM

$$$$
>  <compound>
COc1ncc(NC(=O)C(=O)N2C[C@@H](C)CC[C@@H]2c2ccc3c(c2)CC(=O)N3)cc1C(N)=O (single isomer, unassigned)

>  <measured.target>
PRMT5 (Homo sapiens)

>  <assay.result>
0.05 to 0.5 µM

$$$$

Attention now shifts to the item below.
input: Please give the measured IC50 for this compound: NC(=O)c1cncc(NC(=O)C(=O)N2C[C@H](c3cc[nH]n3)CC[C@H]2c2ccccc2)c1 (racemic)
output: > 0.5 µM

* * *

# measured.target: PRMT5 (Homo sapiens, UniProt O14744)
# Construct: purchased Viva (custom protein)
# measurement.description: PRMT5 biochemical IC50 assay with no cofactor
# condition.context: PRMT5, no cofactor; read-out: No Cofactor/rel IC50
pIC50: −log10 of the molar value.
The following molecules are listed with their measured pIC50 values.

input: Quick check: pIC50 of C[C@H]1C[C@H](C)[C@H](c2ccccc2)N(C(=O)C(=O)Nc2cncc(C(N)=O)c2)C1 (single isomer, unassigned) [Compound 267] ?
output: 6.30 to 7.30

input: What pIC50 value was documented for this molecule, Cc1cc(NC(=O)C(=O)N2C[C@H](C)CC[C@H]2c2ccc(S(C)(=O)=O)cc2)cnc1N (racemic) [Compound 643] ?
output: 6.30 to 7.30

input: Which pIC50 reading was recorded for the molecule CC[C@@H]1CCN(C(=O)C(=O)Nc2cncc(C(N)=O)c2)[C@H](c2ccccc2)C1 (racemic) [Compound 497] ?
output: 6.30 to 7.30
